The values you see were collected from patent US8404869B2.

system: C57BL/6JL Lep ob/Lep ob mice; experiment: Blood biomarkers (lipid, glucose, enzyme levels) in ob/ob mice; format: in vivo; set-up: unit not given here; conditions: after mixed-feed of 0.4% for 18 days
property-measured: HDL chol
Give bare numbers.

Please review the following examples before continuing.
Please look up its HDL chol: CC1CC2=C(O1)c1ccc3ccc(C(C)(C)C)cc3c1C(=O)C2=O (stereo not drawn) [Example 11]
47.5

Cool, now CC1(C)CCC2=C(O1)c1ccc3c(c1C(=O)C2=O)CCCC3 [Example 6]
49.0

Cool, now Cc1cc2c(c3ccccc13)C(=O)C(=O)C1=C2OC(C)C1 (stereo not drawn) [Example 9]
48.0

Cool, now CC1CC2=C(O1)c1ccc3c(c1C(=O)C2=O)CCCC3 (stereo not drawn) [Example 1]
42.5

Cool, now Cc1ccc2ccc3c(c2c1)C(=O)C(=O)C1=C3OC(C)C1 (stereo not drawn) [Example 14]
45.0

Please look at the items below and tell me HDL chol for each one, in order.
1. CC1C2=C(OC1(C)C)c1ccc3c(c1C(=O)C2=O)CCCC3(C)C (stereo not drawn) [Example 5]
2. CC1CC2=C(O1)c1ccc3ccc(Cl)cc3c1C(=O)C2=O (stereo not drawn) [Example 13]

45.5
44.0

Please look at the items below and tell me HDL chol for each one, in order.
1. COc1ccc2ccc3c(c2c1)C(=O)C(=O)C1=C3OC(C)C1 (stereo not drawn) [Example 15]
2. C[C@H]1COC2=C1C(=O)C(=O)c1c2ccc2c1CCCC2(C)C [Positive control group, Cryptotanshinone, reference compound]
3. CC1OC2=C(C(=O)C(=O)c3c2ccc2ccc(C(C)(C)C)cc32)C1(C)C (stereo not drawn) [Example 12]

1: 46.0; 2: 48.0; 3: 48.0

Please look at the items below and tell me HDL chol for each one, in order.
1. CC1OC2=C(C(=O)C(=O)c3c2ccc2c3CCCC2(C)C)C1(C)C (stereo not drawn) [Example 4]
2. Cc1cc2c(c3ccccc13)C(=O)C(=O)C1=C2OC(C)(C)CC1 [Example 16]
3. Cc1cc2c(c3ccccc13)C(=O)C(=O)C1=C2OC(C)C1(C)C (stereo not drawn) [Example 10]
4. CC1CC2=C(O1)c1ccc3ccccc3c1C(=O)C2=O (stereo not drawn) [Example 7]

[45.0, 47.0, 45.0, 58.8]

Please look up its HDL chol: CC1OC2=C(C(=O)C(=O)c3c2ccc2ccccc32)C1(C)C (stereo not drawn) [Example 8]
48.0

###

Provide the reported change in vivo at 0.4 % in feed of each item.
system: C57BL/6JL Lep ob/Lep ob mice; test: Weight loss effects in obese mice (ob/ob); assay type: in vivo; conditions: Mus musculus, po, 432 h, (Final BW−Initial BW)/Initial BW×100; mixed-feed of 0.4% for 18 days; read-out: Increase in BW
One number for each entry, in %.

Please review the following examples before continuing.
Please look up its change in vivo at 0.4 % in feed: CC1CC2=C(O1)c1ccc3c(c1C(=O)C2=O)CCCC3 (stereo not drawn) [Example 1]
-14.2

Cool, now CC1CC2=C(O1)c1ccc3ccc(Cl)cc3c1C(=O)C2=O (stereo not drawn) [Example 13]
-6.3

Cool, now Cc1cc2c(c3ccccc13)C(=O)C(=O)C1=C2OC(C)C1(C)C (stereo not drawn) [Example 10]
-20.3

Cool, now CC1CC2=C(O1)c1ccc3ccc(C(C)(C)C)cc3c1C(=O)C2=O (stereo not drawn) [Example 11]
-1.2

Cool, now Cc1cc2c(c3ccccc13)C(=O)C(=O)C1=C2OC(C)C1 (stereo not drawn) [Example 9]
-6

Kindly consider the entry below.
Please look up its change in vivo at 0.4 % in feed: CC1OC2=C(C(=O)C(=O)c3c2ccc2ccc(C(C)(C)C)cc32)C1(C)C (stereo not drawn) [Example 12]
-6.9

###

Provide the reported change in vivo at 0.4 % in feed of each item.
system: C57BL/6JL Lep ob/Lep ob mice; experiment: Weight loss effects in obese mice (ob/ob); assay type: in vivo; conditions: Mus musculus, po, 432 h, (Final BW−Initial BW)/Initial BW×100; mixed-feed of 0.4% for 18 days; read-out: Increase in BW
Give bare numbers, in %.

Query the reported change in vivo at 0.4 % in feed for C57BL/6JL Lep ob/Lep ob mice; item: CC1C2=C(OC1(C)C)c1ccc3c(c1C(=O)C2=O)CCCC3(C)C (stereo not drawn) [Example 5]
-7.8

Please look at the items below and tell me change in vivo at 0.4 % in feed for each one, in order.
1. C[C@H]1COC2=C1C(=O)C(=O)c1c2ccc2c1CCCC2(C)C [Positive control group, Cryptotanshinone, reference compound]
2. CC1(C)CCC2=C(O1)c1ccc3c(c1C(=O)C2=O)CCCC3 [Example 6]
3. Cc1ccc2ccc3c(c2c1)C(=O)C(=O)C1=C3OC(C)C1 (stereo not drawn) [Example 14]
4. COc1ccc2ccc3c(c2c1)C(=O)C(=O)C1=C3OC(C)C1 (stereo not drawn) [Example 15]
5. CC1OC2=C(C(=O)C(=O)c3c2ccc2ccccc32)C1(C)C (stereo not drawn) [Example 8]
6. CC1OC2=C(C(=O)C(=O)c3c2ccc2c3CCCC2(C)C)C1(C)C (stereo not drawn) [Example 4]
7. Cc1cc2c(c3ccccc13)C(=O)C(=O)C1=C2OC(C)(C)CC1 [Example 16]
8. CC1CC2=C(O1)c1ccc3ccccc3c1C(=O)C2=O (stereo not drawn) [Example 7]

-1.2
-6.3
-7
-6.7
-20.3
-7.1
-7.2
-3.9

###

system: C57BL/6JL Lep ob/Lep ob mice; test: Blood biomarkers (lipid, glucose, enzyme levels) in ob/ob mice; assay type: in vivo; design: unit not given here; conditions: after mixed-feed of 0.4% for 18 days
Provide the reported glucose of each item.
One number for each entry.

Please review the following examples before continuing.
Please look up its glucose: CC1CC2=C(O1)c1ccc3ccccc3c1C(=O)C2=O (centres unmarked) [Example 7]
156

Cool, now COc1ccc2ccc3c(c2c1)C(=O)C(=O)C1=C3OC(C)C1 (centres unmarked) [Example 15]
155

Cool, now CC1OC2=C(C(=O)C(=O)c3c2ccc2c3CCCC2(C)C)C1(C)C (centres unmarked) [Example 4]
128

Cool, now CC1(C)CCC2=C(O1)c1ccc3c(c1C(=O)C2=O)CCCC3 [Example 6]
145

Cool, now CC1CC2=C(O1)c1ccc3ccc(C(C)(C)C)cc3c1C(=O)C2=O (centres unmarked) [Example 11]
175

Please look at the items below and tell me glucose for each one, in order.
1. Cc1ccc2ccc3c(c2c1)C(=O)C(=O)C1=C3OC(C)C1 (centres unmarked) [Example 14]
2. Cc1cc2c(c3ccccc13)C(=O)C(=O)C1=C2OC(C)C1(C)C (centres unmarked) [Example 10]
3. CC1CC2=C(O1)c1ccc3ccc(Cl)cc3c1C(=O)C2=O (centres unmarked) [Example 13]
4. Cc1cc2c(c3ccccc13)C(=O)C(=O)C1=C2OC(C)C1 (centres unmarked) [Example 9]

[146, 121, 138, 136]

Please look at the items below and tell me glucose for each one, in order.
1. CC1CC2=C(O1)c1ccc3c(c1C(=O)C2=O)CCCC3 (centres unmarked) [Example 1]
2. CC1OC2=C(C(=O)C(=O)c3c2ccc2ccccc32)C1(C)C (centres unmarked) [Example 8]
3. CC1OC2=C(C(=O)C(=O)c3c2ccc2ccc(C(C)(C)C)cc32)C1(C)C (centres unmarked) [Example 12]
4. Cc1cc2c(c3ccccc13)C(=O)C(=O)C1=C2OC(C)(C)CC1 [Example 16]
5. CC1C2=C(OC1(C)C)c1ccc3c(c1C(=O)C2=O)CCCC3(C)C (centres unmarked) [Example 5]

[120, 118, 153, 135, 141]
